- Tested on: ATP;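 further: ATP exposure 15 min at 22 °C before imaging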
- EXPERIMENT_DESCRIPTION: switch fluorescence ratio, 500 uM ATP over buffer (Cy3 cluster intensity, sum of 5 cycles each) (fold (ratio)); higher = stronger signal-on switching upon ATP binding; sequences stand for … in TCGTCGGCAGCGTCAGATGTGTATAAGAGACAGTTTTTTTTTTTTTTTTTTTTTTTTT…TC
- CONDITION_DESCRIPTION: aptamer strand: ATP DNA aptamer (quencher-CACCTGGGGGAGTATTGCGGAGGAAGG + anchor), 100 nM annealed; ATP concentration: 500 uM
MEASURED_PROPERTY: switch fluorescence ratio
Response field accepts a number only; no unit should be typed.

The reported switch fluorescence ratio value, ATP, for GTATTGGGTT reads 1

Tested on ATP: GATGTATGTT . Observed switch fluorescence ratio: 0.978

# TATTTGATGC with ATP: switch fluorescence ratio is 1.02

Given the sequence ATTTGTATTC and test system ATP, the measured switch fluorescence ratio is 1.03

Form field switch fluorescence ratio for item GGACTTTCGT on ATP: 0.993

Summary line: GGCCCGGTTT , ATP, reported switch fluorescence ratio = 0.99

---
Entry GAGGATGCTC , tested on ATP, has a reported switch fluorescence ratio of 1.01
